B1: FAM98B (parent)
chain: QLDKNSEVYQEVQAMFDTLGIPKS

Variants of: B1
test: protein stability index of a GFP-peptide fusion (GPS, HEK-293T) (PSI 1-6); higher = more stable;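 also: lentivirally expressed fusions sorted by FACS into six bins by GFP to DsRed ratio, PSI derived from sequencing read proportions per bin multiplied by bin number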
measurement-setup: c terminus: a fixed tail appended
The reader will find reported protein stability index values listed item by item below.
assay-readout: protein stability index

INSERT INTO assay_data (mutation_string, assay_value) VALUES
  ('D3E', 3.87),
  ('V8P', 3.32),
  ('S24L', 2.46),
  ('P22V', 3.16),
  ('L19T', 3.59),
  ('S24E', 3.47),
  ('S6L', 2.66),
  ('K4T', 3.08),
  ('A14S', 3.37),
  ('N5M', 3.24),
  ('Y9Q', 3.98),
  ('K23I', 2.15),
  ('D17Y', 2.02),
  ('V12E', 3.5),
  ('K23P', 3.47),
  ('K23R', 3.38),
  ('S6N', 3.29),
  ('T18S', 2.85),
  ('I21F', 3.3),
  ('K4Q', 3.03),
  ('Y9K', 3.72),
  ('L19V', 3.56),
  ('M15L', 2.94),
  ('V12G', 4),
  ('S6K', 3.23),
  ('K4R', 2.95),
  ('K23W', 2.3),
  ('S24I', 2.67),
  ('F16S', 3.42),
  ('L2T', 4.32),
  ('E7P', 2.58),
  ('L19H', 3.71),
  ('A14N', 4.67),
  ('Y9A', 4.12),
  ('V12F', 3.48),
  ('G20Q', 2.98),
  ('I21R', 2.76),
  ('K4M', 2.85),
  ('Q13F', 2.53),
  ('D17P', 3.49),
  ('L19C', 3.69),
  ('Q13D', 3.82),
  ('L2V', 3.87),
  ('K4H', 3.43),
  ('S24M', 2.69),
  ('V8F', 2.55),
  ('Q10M', 2.73),
  ('M15V', 2.91),
  ('I21S', 3.34),
  ('T18H', 3.07),
  ('V12M', 3.29),
  ('F16W', 2.1),
  ('Q1W', 2.88),
  ('Q1N', 3.39),
  ('S24D', 4.28),
  ('F16L', 3.12),
  ('V8G', 3.12),
  ('Q13E', 3.34),
  ('L2M', 3.23),
  ('P22Q', 2.62),
  ('P22I', 2.78),
  ('Q10V', 2.08),
  ('K4N', 3.67),
  ('L2I', 3.08),
  ('Q1E', 2.9),
  ('A14V', 2.77),
  ('E11Y', 2.7),
  ('K4Y', 3.39),
  ('M15G', 3.69),
  ('F16Q', 4.11),
  ('F16M', 3.3),
  ('L2F', 3.51),
  ('M15C', 2.73),
  ('Q1G', 3.31),
  ('A14K', 3.03),
  ('T18D', 3.87),
  ('E7K', 3.06),
  ('Q13T', 3.86),
  ('T18E', 3.57),
  ('E7G', 2.97),
  ('E7T', 2.83),
  ('D17E', 3.42),
  ('T18N', 3.13),
  ('I21T', 3.69),
  ('L2C', 4.07),
  ('V8D', 3.62),
  ('K4S', 3.52),
  ('E7F', 2.39),
  ('Y9S', 3.78),
  ('Q13R', 2.59),
  ('D17W', 1.57);
